Assay: activity coefficient (dimensionless); of the first substance listed, at infinite dilution; xn = mol fraction of the nth substance listed
Details: 353.4 K; 101 kPa; Liquid; Chromatography; x1 = 0
parameter: activity coefficient
When you answer, write just the number.

See these solved cases before continuing.
compound	parameter	measured.result
C#CCCC [1-pentyne] + CCCCC[n+]1ccccc1.O=S(=O)([N-]S(=O)(=O)C(F)(F)F)C(F)(F)F	activity coefficient	1.39
CCO [ethanol] + CCCCC[n+]1ccccc1.O=S(=O)([N-]S(=O)(=O)C(F)(F)F)C(F)(F)F	activity coefficient	1.19
C=CCCCCCCCC [1-decene] + CCCCC[n+]1ccccc1.O=S(=O)([N-]S(=O)(=O)C(F)(F)F)C(F)(F)F	activity coefficient	19.3
CO [methanol] + CCCCC[n+]1ccccc1.O=S(=O)([N-]S(=O)(=O)C(F)(F)F)C(F)(F)F	activity coefficient	0.94
CCCCCCCCC [nonane] + CCCC[n+]1ccccc1.O=S(=O)([N-]S(=O)(=O)C(F)(F)F)C(F)(F)F	activity coefficient	28.1

Continue with the compound presented below.
// lookup activity coefficient for CCCCCC [hexane] + CCCC[n+]1ccccc1.O=S(=O)([N-]S(=O)(=O)C(F)(F)F)C(F)(F)F 4.75

----------
Experiment: activity coefficient (dimensionless); of the first substance listed, at infinite dilution; xn = mol fraction of the nth substance listed
Settings: 343 K; 101 kPa; Liquid; Chromatography; x1 = 0
parameter: activity coefficient
Would you mind answering with just the numeric figure?

Would you please look over these solved cases?
compound	parameter	measured.result
Cc1cccc(C)c1 [1,3-dimethylbenzene] + CC[n+]1ccccc1.O=S(=O)([N-]S(=O)(=O)C(F)(F)F)C(F)(F)F	activity coefficient	3.12
c1ccccc1 [benzene] + CC[n+]1ccccc1.O=S(=O)([N-]S(=O)(=O)C(F)(F)F)C(F)(F)F	activity coefficient	1.39
C#CCCC [1-pentyne] + CCCC[n+]1ccccc1.O=S(=O)([N-]S(=O)(=O)C(F)(F)F)C(F)(F)F	activity coefficient	1.88
C=CCCCCCC [oct-1-ene] + CCCC[n+]1ccccc1.O=S(=O)([N-]S(=O)(=O)C(F)(F)F)C(F)(F)F	activity coefficient	13.6
Cc1ccc(C)cc1 [1,4-dimethylbenzene] + CC[n+]1ccccc1.O=S(=O)([N-]S(=O)(=O)C(F)(F)F)C(F)(F)F	activity coefficient	3.09

Please look up its activity coefficient: CCc1ccccc1 [ethylbenzene] + CC[n+]1ccccc1.O=S(=O)([N-]S(=O)(=O)C(F)(F)F)C(F)(F)F 3.4

Would you mind doing C=CCCCC [hex-1-ene] + CCCC[n+]1ccccc1.O=S(=O)([N-]S(=O)(=O)C(F)(F)F)C(F)(F)F as well? 4.33

Next record, please: Cc1ccccc1 [toluene] + CC[n+]1ccccc1.O=S(=O)([N-]S(=O)(=O)C(F)(F)F)C(F)(F)F 2.12

----------
Assay: activity coefficient (dimensionless); of the first substance listed, at infinite dilution; xn = mol fraction of the nth substance listed
Conditions: 333.4 K; 101 kPa; Liquid; Chromatography; x1 = 0
activity coefficient strictly less than 2 = Condition met. Otherwise Condition not met.

Consider the worked cases shown below.
molecule	qualitative.label
C=CCCCC [hex-1-ene] + CCCCC[n+]1ccccc1.O=S(=O)([N-]S(=O)(=O)C(F)(F)F)C(F)(F)F	Condition not met
C=CCCCCCC [oct-1-ene] + CCCCC[n+]1ccccc1.O=S(=O)([N-]S(=O)(=O)C(F)(F)F)C(F)(F)F	Condition not met
C=CCCCCCCCC [1-decene] + CCCCC[n+]1ccccc1.O=S(=O)([N-]S(=O)(=O)C(F)(F)F)C(F)(F)F	Condition not met
Cc1ccc(C)cc1 [1,4-dimethylbenzene] + CCCCC[n+]1ccccc1.O=S(=O)([N-]S(=O)(=O)C(F)(F)F)C(F)(F)F	Condition met

I'd appreciate it if you could check whether Cc1ccccc1C [1,2-dimethylbenzene] + CCCCC[n+]1ccccc1.O=S(=O)([N-]S(=O)(=O)C(F)(F)F)C(F)(F)F has activity coefficient smaller than 2. Condition met

Next molecule: Cc1cccc(C)c1 [1,3-dimethylbenzene] + CCCCC[n+]1ccccc1.O=S(=O)([N-]S(=O)(=O)C(F)(F)F)C(F)(F)F Condition met
